Would you kindly list Surface Tension for each of these compounds?
- assay-procedure: Surface tension (lowering of the air/water surface tension), Table 2
- Format: physicochemical
- condition-parameters: 10 mEq/L, deionized water, 22° C.
Answers are plain numbers, in Dyne/cm.

Example cases with answers are listed next.
CCCCCCCCC(CO)Cc1ccc(S(=O)(=O)O)cc1 (stereo not shown) : 29.3
CCCCCCCCCCCCc1ccc(O)c(S(=O)(=O)O)c1 : 23.4
CCCCCCCCCc1ccc(O)c(S(=O)(=O)O)c1 : 24.9
CCCCCC(CO)CCC(C)c1ccc(S(=O)(=O)O)cc1 (stereo not shown) : 25.6
CCCCCCC(CO)Cc1ccc(S(=O)(=O)O)cc1 (stereo not shown) : 25.2
CCCCCCC(CO)CCC(C)c1ccc(S(=O)(=O)O)cc1 (stereo not shown) : 25.1

# ---- query compound ----
For the compound shown here, CCCCCCCCC(CO)CCC(C)c1ccc(S(=O)(=O)O)cc1 (stereo not shown) , give the reported Surface Tension.
26.4

---

- assay-procedure: Calcium-ion tolerance (calcium precipitation) test
- Type: physicochemical
- condition-parameters: 10 mEq/L; remainder precipitates at the higher calcium concentration
Would you kindly list Calcium Precipitation (ppm CA^2+), higher concentration for each of these compounds?
One number for each entry, in ppm.

CCCCCC(CO)CCC(C)c1ccc(S(=O)(=O)O)cc1 (centres unmarked) : 20000

For the compound shown here, CCCCCCC(CO)Cc1ccc(S(=O)(=O)O)cc1 (centres unmarked) , give the reported Calcium Precipitation (ppm CA^2+), higher concentration.
57000

---

- assay-procedure: Calcium-ion tolerance (calcium precipitation) test
- Assay type: physicochemical
- condition-parameters: 10 mEq/L surfactant titrated with 5 M CaCl2 until transmittance (600 nm) 80% of initial
measurement-type: Calcium Precipitation (ppm CA^2+) (ppm)
One number for each entry, in ppm.

CCCCCCC(CO)CCC(C)c1ccc(S(=O)(=O)O)cc1 (centres unmarked) : 2800

# ---- query compound ----
For the compound shown here, CCCCCCCCCc1ccc(O)c(S(=O)(=O)O)c1 , give the reported Calcium Precipitation (ppm CA^2+).
160

---

- assay-procedure: Calcium-ion tolerance (calcium precipitation) test
- Type: physicochemical
- condition-parameters: 10 mEq/L surfactant titrated with 5 M CaCl2 until transmittance (600 nm) 80% of initial
measurement-type: Calcium Precipitation (ppm CA^2+) (K)
Numbers only, in K.

CCCCCCCCC(CO)Cc1ccc(S(=O)(=O)O)cc1 (stereo not drawn) [Example 5] : 100

For the compound shown here, CCCCCCCCC(CO)CCC(C)c1ccc(S(=O)(=O)O)cc1 (stereo not drawn) [Example 3] , give the reported Calcium Precipitation (ppm CA^2+).
40

Origin of measurements: patent US4894173A
